Attribution: PubChem BioAssay AID1578

Assay: NOD1 signaling inhibitors, primary screen, cell-based, luminescence, uHTS (AID 1578);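 also: HEK-293T reporter cells stimulated with the NOD1 agonist gamma-tri-DAP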
Conditions: NOD1-driven NF-kB luciferase reporter cells, at 4 µM, active compounds read high
Hit rate of the full screen: of about 290,000 compounds, about 3,000 (1%) were called active. For the sample, actives were picked, then their nearest neighbours and some compounds at random.
readout: inhibition (%)
The reply should contain only the number, in %.

Before answering, review these 2 worked examples.
compound: Cc1c(C(c2cccc(Br)c2)c2c(C)n(C)n(-c3ccccc3)c2=O)c(=O)n(-c2ccccc2)n1C
outputUnit: %
inhibition: -14
--
compound: O=C(CSc1n[nH]c(-c2ccccc2)n1)Nc1ccc(F)cc1F
outputUnit: %
inhibition: -6.2

Problem: Please give the documented inhibition of COc1ccc(CCNC(=O)CN(c2ccc(OC)c(OC)c2)S(=O)(=O)c2ccc(C)cc2)cc1
Result: 32.6

Problem: Determine from records and report inhibition for C/C(=N/NC(=O)c1ccncc1)c1ccc(NC(=O)c2ccccc2)cc1
Result: -8.8

Problem: Report inhibition for Cc1nn(C(C)(C)C)c(OC(=O)c2ccco2)c1Sc1ccccc1
Result: -2.8

Problem: // Input: CC(=O)Nc1nc(-c2ccc3c(c2)OCO3)cs1 . Output its inhibition only.
Result: 1.1

Problem: Give the reported inhibition for this compound. CC(CC(=O)NCCc1ccc(F)cc1)c1ccccc1 (stereo unspecified)
Result: -24.3

Problem: Consider the compound CN(C)C(=O)c1ccc(NS(=O)(=O)c2ccc3c(c2)OCCO3)cc1 . State its measured inhibition.
Result: -34.8

Problem: Indicate the recorded inhibition value for this compound: O=C(CN1C(=O)/C(=C/c2ccccc2F)Sc2ccccc21)NCc1cccnc1
Result: 59.2

Problem: Provide measured inhibition value, entry: COc1cccc(CNC(C)(C)CO)c1OCc1ccc(Cl)cc1
Result: -33

Problem: Answer with the recorded inhibition of COc1ccccc1-n1cnc2sc(-c3ccccc3)cc2c1=O only.
Result: 30.1

* * *

Experiment: NOD1 signaling inhibitors, primary screen, cell-based, luminescence, uHTS (AID 1578);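 also: HEK-293T reporter cells stimulated with the NOD1 agonist gamma-tri-DAP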
Settings: NOD1-driven NF-kB luciferase reporter cells, at 4 µM
Among all 290,000 compounds or so, about 3,000 (1%) were called active. No stated cut-off is given here; in the data, active means inhibition mostly above about 36% (no sharp cut-off); inactive means mostly below about 34%. Shown is part of a subset that was picked to be rich in actives.
The categories you may choose from are active, inactive

# count of solved cases: 4
compound: O=C(N/N=C(\c1ccccc1)c1ccccn1)c1cccc([N+](=O)[O-])c1
label: active

compound: CC(C)(C)C(=O)NC1=NN(c2c(Cl)cc(Cl)cc2Cl)C(=O)C1
label: inactive

compound: O=C(CSc1nc2ccccc2c(=O)n1CCCN1CCOCC1)c1c[nH]c2ccccc12
label: inactive

compound: COc1ccc(/C=N/NC(=O)c2c(-c3ccccc3)noc2C)cc1[N+](=O)[O-]
label: inactive

Problem: Would you mind telling me which call this test gave CCN1C(=O)c2ccccc2Sc2ccc(C(=O)NC(C)C)cc21 ?
Result: inactive

Problem: What did this assay record as the result for COc1ccc(-c2onc(C)c2C)cc1S(=O)(=O)NCCc1ccco1 ?
Result: inactive

Problem: Each compound tested received a call. Report the one for COc1ccccc1OC(=O)Cc1cccc2ccccc12 .
Result: inactive

Problem: Dear colleague, could you share the recorded outcome for COc1ccc2[nH]cc(C(=O)CN3CCN(C/C=C/c4ccccc4)CC3)c2c1 when you have a moment?
Result: inactive
